The reported measurements were obtained from patent US8637504B2.

- measuredTarget: Recombinant human BACE-1 (Homo sapiens (Human), UniProt P56817)
- Sequence (P56817 46-501): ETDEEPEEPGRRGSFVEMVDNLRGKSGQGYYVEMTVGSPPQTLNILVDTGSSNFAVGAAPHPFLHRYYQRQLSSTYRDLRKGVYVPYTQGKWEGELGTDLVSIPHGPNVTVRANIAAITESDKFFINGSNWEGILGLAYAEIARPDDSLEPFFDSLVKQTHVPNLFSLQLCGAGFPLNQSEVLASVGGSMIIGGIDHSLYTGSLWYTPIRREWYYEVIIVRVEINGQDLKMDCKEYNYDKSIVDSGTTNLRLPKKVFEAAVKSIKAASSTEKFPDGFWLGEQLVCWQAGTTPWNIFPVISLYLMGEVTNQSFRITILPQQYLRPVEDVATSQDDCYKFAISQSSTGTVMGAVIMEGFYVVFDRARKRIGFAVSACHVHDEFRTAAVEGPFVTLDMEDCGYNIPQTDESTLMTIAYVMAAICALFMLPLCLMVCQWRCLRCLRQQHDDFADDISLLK
- measurementProtocol: Assay of β-secretase-inhibiting activity
- testSettings: Recombinant human BACE-1 7.4 nM, substrate peptide 18 nM, pH 5.0, 30° C. 3 hours
pIC50: −log10 of the molar value.
measureName: pIC50

# annotated cases, reported pIC50 shown
molecule: C[C@@]1(c2cc(NC(=O)c3ncc(Br)cn3)ccc2F)C=CSC(N)=N1
measuredResult: 7.62
--
molecule: C[C@@]1(c2cc(NC(=O)c3cnc(OCc4ncc[nH]4)cn3)ccc2F)C=CSC(N)=N1
measuredResult: 6.77
--
molecule: COc1cnc(C(=O)Nc2ccc(F)c([C@]3(C)CC(=C(C)C)SC(N)=N3)c2)cn1
measuredResult: 7.72

(A) NC1=NC(c2cccc(NC(=O)c3cnc(OCCF)cn3)c2)(C(F)(F)F)CCS1 (centres unmarked)
(B) C=C1C[C@@](C)(c2cc(NC(=O)c3cnc(OC)cn3)cnc2C)N=C(N)S1
(C) Cc1cc(C(=O)Nc2ccc(F)c([C@]3(C)C=CSC(N)=N3)c2)n(C)n1
Put the molecules in ascending order of pIC50. Would you mind listing the labels in the order asked for?
A, C, B

(A) C[C@@]1(c2cc(NC(=O)c3ncc(C#N)cc3Cl)ccc2F)C=CSC(N)=N1
(B) COc1ccc(C2(c3cccc(NC(=O)c4ncc(Cl)cc4Cl)c3)CSC(N)=N2)cc1O (centres unmarked)
Of A and B , whose reported pIC50 is numerically smaller? # answer = label of selected item
B
(B: 6.73, A: 7.72)

---

- measurementProtocol: Metabolism stability test
- Format: in vitro ADME
- testSettings: human liver microsomes 0.5 mg protein/mL, NADPH, 37° C., 30 minutes
measureName: remaining amount of the test compound after the reaction (%)

smilesRepr: C[C@@]1(c2cccc(-c3cncc(C#N)c3)c2)CCSC(N)=N1
measuredResult: 95
//
smilesRepr: C[C@@]1(c2cc(NC(=O)c3cnc(-n4cncn4)cn3)ccc2F)C=CSC(N)=N1
measuredResult: 94
//
smilesRepr: C[C@@]1(c2cccc(-c3ccc(F)nc3F)c2)CCSC(N)=N1
measuredResult: 98
//
smilesRepr: C[C@@]1(c2cc(NC(=O)c3cnc(-c4ncco4)cn3)ccc2F)C=CSC(N)=N1
measuredResult: 95

---

- measuredTarget: CYP2D6 (Homo sapiens (Human), UniProt P10635)
- Sequence (P10635 whole entry): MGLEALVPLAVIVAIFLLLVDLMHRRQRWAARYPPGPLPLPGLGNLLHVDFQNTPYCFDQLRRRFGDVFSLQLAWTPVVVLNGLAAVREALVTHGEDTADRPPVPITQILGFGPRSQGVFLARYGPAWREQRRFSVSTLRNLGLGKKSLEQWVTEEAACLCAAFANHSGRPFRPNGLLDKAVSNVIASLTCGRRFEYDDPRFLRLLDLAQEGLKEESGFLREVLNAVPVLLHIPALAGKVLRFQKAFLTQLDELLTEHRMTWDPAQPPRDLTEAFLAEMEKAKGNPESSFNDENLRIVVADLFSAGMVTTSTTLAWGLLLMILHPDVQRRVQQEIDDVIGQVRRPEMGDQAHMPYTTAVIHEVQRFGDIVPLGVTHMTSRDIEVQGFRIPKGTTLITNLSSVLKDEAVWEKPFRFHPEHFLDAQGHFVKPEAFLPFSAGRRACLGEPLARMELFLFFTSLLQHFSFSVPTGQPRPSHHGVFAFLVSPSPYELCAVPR
pIC50: −log10 of the molar value.
measureName: pIC50

smilesRepr: C=C1C[C@@](C)(c2cncc(NC(=O)c3cnc(OC)cn3)c2)N=C(N)S1
measuredResult: < 4.70
//
smilesRepr: Cc1cc(C(=O)Nc2ccc(F)c([C@]3(C)C=CSC(N)=N3)c2)n(C)n1
measuredResult: < 4.70

Continue with the compound presented below.
Value of measured pIC50 for the entry "C[C@@]1(c2cc(NC(=O)c3cc4n(n3)CCN4)ccc2F)C=CSC(N)=N1" : < 4.70

---

- measuredTarget: Recombinant human BACE-1 (Homo sapiens (Human))
- measurementProtocol: Assay of β-secretase-inhibiting activity
- testSettings: Recombinant human BACE-1 7.4 nM, substrate peptide 18 nM, pH 5.0, 30° C. 3 hours
measureName: IC50 (nM)

# annotated cases, reported IC50 shown
molecule: Cc1ncnn1-c1cnc(C(=O)Nc2ccc(F)c([C@]3(C)C=CSC(N)=N3)c2)cn1 [Compound 75]
measuredTarget: Recombinant human BACE-1 (Homo sapiens (Human))
IC50, nM: 697

molecule: C=C1C[C@@](C)(c2cncc(NC(=O)c3cnc(OC)cn3)c2)N=C(N)S1 [Compound 104]
measuredTarget: Recombinant human BACE-1 (Homo sapiens (Human))
IC50, nM: 63

molecule: CC1=CSC(N)=N[C@]1(C)c1cc(NC(=O)c2cnc(C)cn2)ccc1F [Compound 23]
measuredTarget: Recombinant human BACE-1 (Homo sapiens (Human))
IC50, nM: 5280

molecule: C#CCOc1cnc(C(=O)Nc2ccc(F)c([C@@]3(C)N=C(N)SC=C3C)c2)cn1 [Compound 24]
measuredTarget: Recombinant human BACE-1 (Homo sapiens (Human))
IC50, nM: 54

(1) Cc1cnc(C(=O)Nc2cccc(C3(C(F)(F)F)CCSC(N)=N3)c2)cn1 (centres unmarked) [Compound 44]
(2) C[C@@]1(c2cc(NC(=O)c3ccc(Cl)cn3)ccc2F)C=CSC(N)=N1 [Compound 16]
(3) NC1=NC(c2cccc(NC(=O)c3ccc(O)cn3)c2)(C2CCCCC2)CS1 (centres unmarked) [Compound 3]
(4) COc1cnc(C(=O)Nc2ccc(F)c([C@@]3(C)N=C(N)SC=C3C)c2)cn1 [Compound 22]
Put the molecules in ascending order of IC50. Would you mind listing the labels in the order asked for?
2, 4, 3, 1
